Listed here are molecules together with their documented LogP.
conditions: pH 2.7
Marks after values point to notes of the source that are not given here.

test_smiles: CCCCCOC(=O)Nc1nc(CON=C(c2ccsc2)c2noc(=O)n2C)cs1
LogP: 3.81^[a]

test_smiles: C#CCCOC(=O)Nc1cccc(CON=C(c2ccncc2)c2noc(=O)n2C)n1
LogP: 2.21^[a]

test_smiles: Cn1oc(=O)nc1C(=NOCc1cccc(N)n1)c1ncccn1
LogP: 0.92^[a]

test_smiles: CCCCOC(=O)Nc1cccc(CON=C(c2ncccn2)c2nc(=O)on2C)n1
LogP: 2.23^[a]

test_smiles: CC(C)(C)OC(=O)Nc1nc(CON=C(C(N)=NO)c2cccs2)cs1
LogP: 2.26^[a]

test_smiles: Cn1c(C(=NOCc2cccc(N)n2)c2ccccn2)noc1=O
LogP: 0.85^[a]

test_smiles: CCCCC(=O)Nc1cccc(CON=C(c2cccnc2)c2noc(=O)n2C)n1
LogP: 2.51^[a]

test_smiles: CCCCCC(=O)Nc1cccc(CON=C(c2ccncc2)c2nc(=O)on2C)n1
LogP: 2.23^[a]

test_smiles: Cn1c(C(=NOCc2csc(NC(=O)COc3ccccc3)n2)c2cccs2)noc1=O
LogP: 3.18^[a]

test_smiles: CCCCC(=O)Nc1cccc(CON=C(c2ccccn2)c2nc(=O)on2C)n1
LogP: 2.25^[a]

test_smiles: CCCCCC(=O)Nc1cccc(CON=C(c2ccccn2)c2nc(=O)on2C)n1
LogP: 2.61^[a]

test_smiles: Cn1oc(=O)nc1C(=NOCc1cccc(NC(=O)OC(C)(C)C)n1)c1ncccn1
LogP: 2.14^[a]

test_smiles: C#CCCOC(=O)Nc1cccc(CON=C(c2ncccn2)c2noc(=O)n2C)n1
LogP: 2.08^[a]

test_smiles: CCCCC(=O)Nc1cccc(CON=C(c2ncccn2)c2nc(=O)on2C)n1
LogP: 1.84^[a]

test_smiles: Cn1c(C(=NOCc2csc(N(COCC[Si](C)(C)C)C(=O)OC(C)(C)C)n2)c2ccsc2)noc1=O
LogP: 5.86^[a]

test_smiles: CCCCCC(=O)Nc1cccc(CON=C(c2cccnc2)c2noc(=O)n2C)n1
LogP: 2.86^[a]

test_smiles: CC(C)(C)OC(=O)N(C(=O)OC(C)(C)C)c1nc(CON=C(C#N)c2ccsc2)cs1
LogP: 4.90^[a]

test_smiles: CCCCOC(=O)Nc1cccc(CON=C(c2ccccn2)c2noc(=O)n2C)n1
LogP: 3.25^[a]
